# System: ACHN renal
# run.description: NCI-60 one-dose screen, 48 h (100 = growth as untreated, 0 = no growth, -100 = all killed)
# test.context: 10 µM unless noted
The panel holds about 83,000 compounds, 20% with a hit somewhere; the sample as a whole holds those more often.
recorded.metric: growth (%)
Give the number; % is assumed, so skip it.

Worked set:
compound	assayed.target	growth / %
COc1cc([N+](=O)[O-])c2nc(C)ccc2c1[N+](=O)[O-]	ACHN renal	89.5
CC(=O)O[C@H](C[C@H](C(C)C)N(C)C(=O)[C@@H](NC(=O)[C@H]1CCCCN1C)C(C)C)c1cccc(C(=O)N[C@@H](Cc2ccccc2)C[C@H](C)C(=O)O)n1	ACHN renal	35.3
CC12CCC3C(CCC4Cc5[nH]c6ccccc6c5CC43C)C1CCC2O (stereo unspecified)	ACHN renal	48.3
O=C1C(Cl)=C(N2CCOCC2)C(=O)c2ccccc21	ACHN renal	78.4

Any idea what growth was measured for "Cn1cc(C2=C(c3cn(C4CCN(Cc5ccccn5)CC4)c4ccccc34)C(=O)NC2=O)c2ccccc21" ?
63.8

Reported growth, compound "CC(C)=CCC/C(C)=C/C=N\N=C(/N)N[N+](=O)[O-]" : ____
109

Item N#CC1C(C#N)C2CCC1C1C2N1c1ccccc1 (stereo unspecified) has what recorded growth?
97.4

Please look up its growth: "Clc1ccc(N2COOC3(OOC2)C2CC4CC(C2)CC3C4)cc1"
29.4

Quick check: growth of "CC[C@H](C)[C@@H]1OC(=O)C(C)(C)[C@H](O)[C@H](Cc2ccccc2)OC(=O)[C@H](C(C)C)OC(=O)[C@@H](NC(=O)c2cccc(NC=O)c2O)[C@@H](C)OC1=O" ?
46.4

What measured growth goes with "C[C@@H]1C[C@@]2(C)[C@@H](CC[C@@H]3[C@@H]2CC[C@]2(C)C(=O)CC[C@@H]32)CC1=O" ?
103

Could you share which growth value was measured for "COc1cccc2c1c(C(=O)c1ccco1)cn2Cc1ccc(F)cc1" ?
107

* * *

# System: PC-3 prostate
# run.description: NCI-60 one-dose screen, 48 h
# test.context: 10 µM unless noted
This is part of a sample that, as a whole, favours compounds with a hit. Of some 83,000 tested, about 20% had one in any assay. The source made the active and inactive calls. How the source made its calls: active means growth percent below 10; inactive means the rest.
Field 'call' accepts 1 (active), 0 (inactive)

Field: example entries. Status: answers known.
compound	assigned.category
COc1cc(C=Nc2cc(Cl)cc(Cl)c2)ccc1N(CCCl)CCCl	0
COc1ccc(/C=C\c2cc(OC)c(OC)c(OC)c2)cc1NS(=O)(=O)c1ccc(Cl)cc1	0
COc1cc2c(cc1OCCCCn1c(-c3cccs3)nc3ccccc31)N=C[C@@H]1CCCN1C2=O	1

Short answer needed: outcome of this test for "CN(C)C(=O)Oc1ccc(Br)cc1" ?
0

Hi, do you know how "C[C@]12C[C@@H](CO)[C@H](O)C[C@@H]1CC[C@@H]1[C@@H]2CC[C@]2(C)[C@@H](O)CC[C@@H]12" came out in this test?
0

What is the recorded call for this compound in the test? "CCOC(=O)[C@@H](C)C[C@H](Cc1ccccc1)NC(=O)c1csc([C@@H](C[C@H](C(C)C)N(C)C(=O)[C@H](CCC(C)C)NC(=O)[C@H]2CCCCN2C)OC(C)=O)n1"
0

In this assay, the call recorded for CCOC(=O)C(Cc1ccc(N(CCCl)CCCl)cc1)NC(=O)C(CC(C)C)NC(C)=O (stereo not drawn) was what?
0

# lookup: test call for O=C(CC1(O)C(=O)Nc2ccc(Cl)cc21)c1ccc(C(=O)NCC2CCC3(CC2)OOC2(CCCCC2)OO3)cc1 (stereo not drawn)
1

# lookup: test call for O=C(CC1(O)C(=O)N(Cc2ccccc2)c2ccc(Br)cc21)c1ccc(C(=O)NCC2CCC3(CC2)OOC2(CCCCC2)OO3)cc1 (stereo not drawn)
1

Given O=C1Nc2ccccc2C2c3cccn3-c3ccccc3CN12 (stereo not drawn) , state the outcome it received in this test.
0

Per the records of this test, what outcome belongs to "Nc1nnnc2nc[nH]c12" ?
0

Identify the outcome logged in this assay for the compound shown: "CS(=O)(=O)CCN1CC2CCCC(C2)C1"
0
